# test_target: androgen receptor (AR) splicing variant AR-v7 (Homo sapiens, UniProt P10275)
# Construct: The degradation activity of compounds on AR-v7 in 22RV1 cells; host or cells: 22RV1 cells
# Sequence (P10275 1-644 isoform P10275-3): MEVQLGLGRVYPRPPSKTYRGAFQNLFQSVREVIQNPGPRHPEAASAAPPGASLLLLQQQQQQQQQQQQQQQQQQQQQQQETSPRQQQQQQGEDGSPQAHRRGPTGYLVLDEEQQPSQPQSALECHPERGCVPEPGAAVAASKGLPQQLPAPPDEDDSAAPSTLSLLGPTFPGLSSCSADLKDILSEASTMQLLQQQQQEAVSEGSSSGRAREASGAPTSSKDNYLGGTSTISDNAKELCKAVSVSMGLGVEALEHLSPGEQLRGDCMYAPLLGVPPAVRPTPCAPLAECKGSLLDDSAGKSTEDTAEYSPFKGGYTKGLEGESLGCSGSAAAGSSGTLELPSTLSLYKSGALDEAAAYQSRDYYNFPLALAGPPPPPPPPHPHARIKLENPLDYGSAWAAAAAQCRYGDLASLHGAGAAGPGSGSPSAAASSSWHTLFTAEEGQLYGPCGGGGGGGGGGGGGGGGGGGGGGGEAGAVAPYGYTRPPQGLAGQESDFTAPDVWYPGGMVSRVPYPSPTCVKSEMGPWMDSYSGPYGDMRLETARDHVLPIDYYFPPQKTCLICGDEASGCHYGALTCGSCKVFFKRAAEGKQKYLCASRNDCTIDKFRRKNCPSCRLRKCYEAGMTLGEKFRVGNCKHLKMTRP
# test_protocol: Degradation activity on androgen receptor splicing variant AR-v7 in 22RV1 cells (ELISA)
# Assay type: cell-based
# cond: AR-v7 degradation in 22RV1 cells, 48 h, class symbols
assay_endpoint: DC50

molecule="Cc1nnc(-c2nccc(Oc3ccc(C(C)(C)c4ccc(O[C@H]5C[C@H](Nc6ccc7c(c6)C(=O)N(C6CCC(=O)NC6=O)C7=O)C5)cc4)cc3)n2)o1 (stereo partly drawn) [Example 289]" test_target="androgen receptor (AR) splicing variant AR-v7 (Homo sapiens, UniProt P10275)" measured_result="< 10 nM"
molecule="CC(O)c1ccc(Oc2ccc(C(C)(C)c3ccc(O[C@H]4C[C@@H](Nc5ccc6c(c5)C(=O)N(C5CCC(=O)NC5=O)C6=O)C4)cc3)cc2)nn1 (stereo partly drawn) [Example 522]" test_target="androgen receptor (AR) splicing variant AR-v7 (Homo sapiens, UniProt P10275)" measured_result="11 to 100 nM"

Query molecule follows.
Inquiry: State recorded DC50 with androgen receptor (AR) splicing variant AR-v7 (Homo sapiens, UniProt P10275), entry CC(C)(c1ccc(OCCC#Cc2ccc3c(c2)C(=O)N(C2CCC(=O)NC2=O)C3=O)cc1)c1ccc(OCc2ccnc(N3CC4(COC4)C3)n2)cc1 (stereo not drawn) [Example 497] , no comment.
Reply text: 1000 to 5000 nM
